- measured_on: Mouse MHC Class I (mouse B6 class I antigens; D^b or K^b molecules on the surface of RMA-S cells) (mouse)
- assay_info: binding of 9mer peptide to mouse B6 (H-2^b) class I antigens; RMA-S cell assay as for Table XLVII
endpoint_label: Binding Affinity to Mouse MHC Class I (%)

APYLPSCLE [WT1 peptide P131-139 …] : 1

P = MFPNAPYLP [WT1 peptide P127-135 …]
Q = ARMFPNAPY [WT1 peptide P125-133 …]
For the pair P and Q , which member has the lower Binding Affinity to Mouse MHC Class I number? Identify your selection by its label. Q
